Where do the numbers come from? From PubChem BioAssay (NCI).

Test system: LOX IMVI melanoma
Test: NCI-60 one-dose screen, 48 h
Conditions: 10 µM unless noted
Experimental: Growth inhibition of the LOX IMVI human tumor cell line is measured as a screen for anti-cancer activity. Cells are grown in 96 well plates and exposed to the test compound for 48 hours. Compounds are tested at a single concentration, which is 10^-5 M for most compounds. The reported endpoint is percent growth (GI% or GIPRCNT), where numbers from 0 - 100% represent growth inhibition, and numbers from -100% - 0 represent cell death. For example, a value of 40 represents 60% growth inhibition. […]
About 83,000 compounds went through this panel and 20% of them were active in at least one assay; those are over-represented in the sample as a whole. Calls of active or inactive are those of the source. How the source made its calls: active means growth percent below 10; inactive means the rest.
Pick one and only one: true for active, false for inactive

Previously resolved entries follow.
compound	class_name
CC(C)CCOc1ccc(-c2n[nH]c(C(F)(F)F)c2-c2cncc(C#N)c2)c(O)c1	true
NNC(=O)CNC(=O)Nc1n[nH]c(=S)s1	false
CNCCNc1nc2ccccc2c2c(=O)c3cc(F)ccc3sc12	false

Input: Recorded test outcome, item OCCNc1nc(Nc2ccc(C3=NN(c4cc(Cl)cc(Cl)c4)C(c4ccc(C(F)(F)F)cc4)C3)cc2)nc(N2CCOCC2)n1 (stereo not given)
Output: false

Input: Would you mind doing O=Cc1cc2ccccc2nc1Nc1nccs1 as well?
Output: false

Input: Would you mind doing Cc1cc(Nc2ccc(OCc3ccccc3)cc2)nc2cc(O)ccc12 as well?
Output: false

Input: Would you mind doing O=c1oc2ccc(Br)cc2c(=O)n1-c1ccc(I)cc1F as well?
Output: true

Input: Would you mind doing CCN1CCN(c2cc(C)c3cc(NC(=O)c4ccc(OC)c(OC)c4)ccc3n2)CC1 as well?
Output: false

Input: Would you mind doing CC/C=C\C[C@H](O)C/C=C1/C(=O)C=C[C@@H]1C/C=C\CCCC(=O)OCCS(=O)(=O)c1ccccc1 as well?
Output: true

Input: Would you mind doing Cc1ccc2sc3c(NCCCNCCO)nc4ccccc4c3c(=O)c2c1 as well?
Output: true
